test system: Mycobacterium tuberculosis; assay: Inhibition of N-terminal enterokinase-cleavable His-tagged full-length Mycobacterium tuberculosis Zmp1 expressed in Escherichia coli BL21(DE3) assessed as residual enzyme activity at 50 uM using MCA-Pro-Leu-Gly-Leu-Dpa-Ala-Arg-NH2 substrate by fluorometry
measurement name: Activity

Q: Report Activity for O=C(O)[C@@H](Cc1ccccc1)Nc1nc(-c2ccc([N+](=O)[O-])cc2)cs1 please.
A: 36.3%

Q: Report Activity for O=C(OCc1ccccc1)c1cccc(/C=C2\SC(=S)N([C@H](Cc3ccccc3)C(=O)O)C2=O)c1 please.
A: 13.5%

Q: Report Activity for N#Cc1ccc(-c2csc(N[C@H](Cc3ccccc3)C(=O)O)n2)cc1 please.
A: 35%

Q: Report Activity for COC(=O)c1cccc(Cc2csc(N[C@H](Cc3ccccc3)C(=O)O)n2)c1 please.
A: 100%

Q: Report Activity for COc1cccc(Cc2csc(N[C@H](Cc3ccccc3)C(=O)O)n2)c1 please.
A: 100%

Q: Report Activity for O=C(O)c1ccc(Cc2csc(N[C@H](Cc3ccccc3)C(=O)O)n2)cc1 please.
A: 100%

Q: Report Activity for COc1cccc(/C=C2\SC(=S)N(CC(=O)O)C2=O)c1 please.
A: 18.9%

Q: Report Activity for C[C@H](C(=O)O)N1C(=O)/C(=C/c2ccc(C(=O)O)cc2)SC1=S please.
A: 7.2%

Q: Report Activity for C[C@H](C(=O)O)N1C(=O)/C(=C/c2cccc(C(=O)O)c2)SC1=S please.
A: 12.7%

Q: Report Activity for O=C(O)[C@@H](Cc1ccccc1)Nc1nc(Cc2ccccc2)cs1 please.
A: 100%

Q: Report Activity for O=C(O)CN1C(=O)/C(=C/c2cccc(C(=O)O)c2)SC1=S please.
A: 11.2%

Q: Report Activity for O=C(O)c1cccc(Cc2csc(N[C@H](Cc3ccccc3)C(=O)O)n2)c1 please.
A: 100%

Q: Report Activity for O=C(O)c1cccc(-c2csc(N[C@H](Cc3ccccc3)C(=O)O)n2)c1 please.
A: 100%

###

For each entry below, report its Activity value.
system: Mycobacterium tuberculosis; test: Inhibition of N-terminal enterokinase-cleavable His-tagged full-length Mycobacterium tuberculosis Zmp1 expressed in Escherichia coli BL21(DE3) assessed as residual enzyme activity at 50 uM using MCA-Pro-Leu-Gly-Leu-Dpa-Ala-Arg-NH2 substrate by fluorometry
Answer format reminder: number followed by unit.

Q: Report Activity for COc1ccc(-c2csc(N[C@H](Cc3ccccc3)C(=O)O)n2)cc1 please.
A: 100%

Q: Report Activity for O=C(O)c1ccc(-c2csc(N[C@H](Cc3ccccc3)C(=O)O)n2)cc1 please.
A: 100%

Q: Report Activity for O=C(O)[C@@H](Cc1ccccc1)N1C(=O)/C(=C/c2cccs2)SC1=S please.
A: 10.4%

Q: Report Activity for COC(=O)c1ccc(Cc2csc(N[C@H](Cc3ccccc3)C(=O)O)n2)cc1 please.
A: 61%

Q: Report Activity for COc1ccc(/C=C2\SC(=S)N([C@H](Cc3ccccc3)C(=O)O)C2=O)cc1 please.
A: 12.3%

Q: Report Activity for O=C(O)CN1C(=O)/C(=C/c2ccc(C(=O)O)cc2)SC1=S please.
A: 10.3%

Q: Report Activity for COC(=O)c1cccc(/C=C2\SC(=S)N([C@H](Cc3ccccc3)C(=O)O)C2=O)c1 please.
A: 13.2%

Q: Report Activity for O=C(OCCc1ccccc1)c1ccc(/C=C2\SC(=S)N([C@H](Cc3ccccc3)C(=O)O)C2=O)cc1 please.
A: 58.7%

Q: Report Activity for N#Cc1ccc(/C=C2\SC(=S)N([C@H](Cc3ccccc3)C(=O)O)C2=O)cc1 please.
A: 7.1%

Q: Report Activity for COc1cccc(/C=C2\SC(=S)N([C@H](C)C(=O)O)C2=O)c1 please.
A: 12.6%
